The origin of these recorded values is patent US9192560B2.

assay: Diacetylresveratryl thioctate stabilization test in candidate solvents (solubility at t0 and a day later); conditions: stabilization of diacetylresveratryl thioctate by the named solvent
endpoint.name: Stability

Here are 4 compounds together with their reported answers.
{"columns": ["compound", "value.reported"],
 "data": [
  ["CCCCCCCCCCC(CO)CCCCCCCC (centres unmarked) [Octyldodecanol]", "No"],
  ["CCCCCCCCOC(=O)c1ccc(C(=O)OCCCCCCCC)c(C(=O)OCCCCCCCC)c1 [Trioctyl trimellitate]", "Yes"],
  ["CO[C@H]1CO[C@H]2[C@@H]1OC[C@H]2OC [Dimethyl isosorbide]", "Yes"],
  ["CCCCC(CC)COC(=O)C(C#N)=C(c1ccccc1)c1ccc(OC)cc1 (centres unmarked) [Ethylhexyl methoxycrylene]", "Yes"]
]}

Here is another compound to look at.
Query block: Quote Stability reported for O=C(Oc1ccccc1)c1ccccc1 [Phenyl benzoate] please.
Result block: Yes
